src = patent US20260137697A1

Test Target: BRAF (Homo sapiens, UniProt P15056)
Construct: GST; purchased Millipore Sigma B4062-10UG
Sequence (P15056 whole entry): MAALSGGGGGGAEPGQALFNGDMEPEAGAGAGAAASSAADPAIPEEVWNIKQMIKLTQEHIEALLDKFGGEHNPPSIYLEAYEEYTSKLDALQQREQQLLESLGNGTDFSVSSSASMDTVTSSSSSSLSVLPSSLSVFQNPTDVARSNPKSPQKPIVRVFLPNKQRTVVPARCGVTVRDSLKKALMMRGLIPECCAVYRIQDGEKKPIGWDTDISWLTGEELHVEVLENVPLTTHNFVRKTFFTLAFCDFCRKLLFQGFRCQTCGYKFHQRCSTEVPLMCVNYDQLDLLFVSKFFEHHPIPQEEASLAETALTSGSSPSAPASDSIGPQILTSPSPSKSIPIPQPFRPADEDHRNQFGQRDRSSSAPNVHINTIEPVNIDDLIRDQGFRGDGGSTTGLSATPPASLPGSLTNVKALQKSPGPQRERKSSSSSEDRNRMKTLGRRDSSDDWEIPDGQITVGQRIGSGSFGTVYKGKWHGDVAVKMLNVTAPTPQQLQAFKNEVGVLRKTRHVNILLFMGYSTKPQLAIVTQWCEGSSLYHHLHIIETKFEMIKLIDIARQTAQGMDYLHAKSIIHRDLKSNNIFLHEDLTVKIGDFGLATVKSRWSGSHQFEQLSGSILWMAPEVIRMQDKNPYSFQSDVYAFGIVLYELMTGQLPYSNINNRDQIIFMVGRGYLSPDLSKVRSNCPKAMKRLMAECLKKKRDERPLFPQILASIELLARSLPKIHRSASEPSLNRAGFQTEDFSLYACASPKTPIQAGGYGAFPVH
Procedure Details: BRAF kinase activity assay (ADP-Glo)
Format: biochemical
Settings: Table 3; 10 μM ATP, kinase-dead MEK1 substrate

| Structure Smiles String | IC50 |
| --- | --- |
| CN(CC(F)F)S(=O)(=O)c1cn(-c2nc3c(Nc4c(F)ccc(NS(=O)(=O)c5cccc(Cl)c5Cl)c4F)ncnc3s2)c2ccccc12 | > 10 nM |
| CC(C)(O)[C@@H]1CCCN1C(=O)c1cn(-c2nc3c(Nc4c(F)ccc(NS(=O)(=O)c5cccc(Cl)c5Cl)c4F)ncnc3s2)c2ccccc12 | 1 to 10 nM |
| COc1ccc(S(=O)(=O)Nc2ccc(F)c(Nc3ncnc4sc(-n5cnc6ccccc65)nc34)c2F)c(C)c1Cl | 1 to 10 nM |

---

# pIC50 annotations
Test Target: CRAF (Homo sapiens, UniProt P04049)
Construct: fused on or other part: GST tag (N-terminal according to the vendor's product)
Sequence (P04049 whole entry Y340E/Y341E, form open, the tested form may be a part): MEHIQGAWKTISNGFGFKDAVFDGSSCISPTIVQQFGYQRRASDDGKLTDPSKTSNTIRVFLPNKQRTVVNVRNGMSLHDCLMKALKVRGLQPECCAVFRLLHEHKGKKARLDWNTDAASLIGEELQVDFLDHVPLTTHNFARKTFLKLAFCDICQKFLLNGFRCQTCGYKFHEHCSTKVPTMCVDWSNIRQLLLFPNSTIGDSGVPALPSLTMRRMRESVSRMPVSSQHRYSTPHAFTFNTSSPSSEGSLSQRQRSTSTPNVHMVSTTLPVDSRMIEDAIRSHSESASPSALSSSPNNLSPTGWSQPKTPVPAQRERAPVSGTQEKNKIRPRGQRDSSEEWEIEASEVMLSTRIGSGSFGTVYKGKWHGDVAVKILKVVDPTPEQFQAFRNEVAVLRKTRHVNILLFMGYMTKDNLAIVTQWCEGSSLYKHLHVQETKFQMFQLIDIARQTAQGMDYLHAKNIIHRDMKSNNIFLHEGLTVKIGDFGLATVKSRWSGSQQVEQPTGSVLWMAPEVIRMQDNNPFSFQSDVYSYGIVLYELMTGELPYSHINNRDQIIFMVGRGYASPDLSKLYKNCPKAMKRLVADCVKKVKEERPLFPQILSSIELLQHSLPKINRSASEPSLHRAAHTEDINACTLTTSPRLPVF
Procedure Details: CRAF kinase activity assay (ADP-Glo)
Format: biochemical
Settings: Table 3; 10 μM ATP, kinase-dead MEK1 substrate
pIC50: −log10 of the molar value.

| Molecule | pIC50 |
| --- | --- |
| CS(=O)(=O)C1CCN(c2cccc3c2ncn3-c2nc3c(Nc4c(F)ccc(NS(=O)(=O)c5cccc(Cl)c5Cl)c4F)ncnc3s2)CC1 | > 8.00 |
| COc1cccc2c1ncn2-c1nc2c(Nc3c(F)ccc(NS(=O)(=O)c4cccc(Cl)c4Cl)c3F)ncnc2s1 | > 8.00 |
| CN(CCc1ccccn1)C(=O)c1cn(-c2nc3c(Nc4c(F)ccc(NS(=O)(=O)c5cccc(Cl)c5Cl)c4F)ncnc3s2)c2ccccc12 | > 8.00 |
| O=S(=O)(Nc1ccc(F)c(Nc2ncnc3sc(-n4cnc5c(N6CCOC(CO)C6)cccc54)nc23)c1F)c1cccc(Cl)c1Cl (stereo not shown) | > 8.00 |
| O=S(=O)(Nc1ccc(F)c(Nc2ncnc3sc(-n4cnc5ccccc54)nc23)c1F)c1ccccc1Cl | > 8.00 |
| CCC(=O)c1cn(-c2nc3c(Nc4c(F)ccc(NS(=O)(=O)c5cccc(Cl)c5Cl)c4F)ncnc3s2)c2ccccc12 | < 7.30 |
| C[C@@H]1CN(S(=O)(=O)c2cn(-c3nc4c(Nc5c(F)ccc(NS(=O)(=O)c6cccc(Cl)c6Cl)c5F)ncnc4s3)c3ccccc23)C[C@H](C)N1 | 7.30 to 8.00 |
| O=S(=O)(Nc1ccc(F)c(Nc2ncnc3sc(-n4cnc5c(N6CCC(F)(CO)CC6)cccc54)nc23)c1F)c1cccc(Cl)c1Cl | 7.30 to 8.00 |
| CN1CC2CCC(C1)N2S(=O)(=O)c1cn(-c2nc3c(Nc4c(F)ccc(NS(=O)(=O)c5cccc(Cl)c5Cl)c4F)ncnc3s2)c2ccccc12 | 7.30 to 8.00 |
| Cc1c(F)cccc1S(=O)(=O)Nc1ccc(F)c(Nc2ncnc3sc(-n4cnc5c(N)cccc54)nc23)c1F | 7.30 to 8.00 |
| O=S(=O)(Nc1ccc(F)c(Nc2ncnc3sc(-n4ccc5ncccc54)nc23)c1F)c1cccc(Cl)c1Cl | > 8.00 |
| O=S(=O)(Nc1ccc(F)c(Nc2ncnc3sc(-n4cnc(-c5ccccc5)c4)nc23)c1F)c1cccc(Cl)c1Cl | < 7.30 |
| COc1ccc(S(=O)(=O)Nc2ccc(F)c(Nc3ncnc4sc(-n5cnc6ccccc65)nc34)c2F)c(C)c1F | 7.30 to 8.00 |

---

Reported IC50 by item:
Test Target: BRAF (Homo sapiens, UniProt P15056)
Construct: GST; purchased Millipore Sigma B4062-10UG
Procedure Details: BRAF kinase activity assay (ADP-Glo)
Type: biochemical
Settings: Table 3; 10 μM ATP, kinase-dead MEK1 substrate
Endpoint Label: IC50

| Molecule | Test Target | Result |
| --- | --- | --- |
| O=S(=O)(Nc1ccc(F)c(Nc2ncnc3sc(-n4cc(S(=O)(=O)N5C6CCC5COC6)c5ccccc54)nc23)c1F)c1cccc(Cl)c1Cl | BRAF (Homo sapiens, UniProt P15056) | 1 to 10 nM |
| CC(=O)N1CCN(c2cccc3c2ncn3-c2nc3c(Nc4c(F)ccc(NS(=O)(=O)c5cccc(Cl)c5Cl)c4F)ncnc3s2)CC1 | BRAF (Homo sapiens, UniProt P15056) | < 1 nM |
| O=S(=O)(Nc1ccc(F)c(Nc2ncnc3sc(-n4cnc5c(C(F)(F)F)cccc54)nc23)c1F)c1cccc(Cl)c1Cl | BRAF (Homo sapiens, UniProt P15056) | 1 to 10 nM |
| Cc1c(F)cccc1S(=O)(=O)Nc1ccc(F)c(Nc2ncnc3sc(-n4nc(C(=O)N(C)CCN(C)C)c5ccccc54)nc23)c1F [Example 27] | BRAF (Homo sapiens, UniProt P15056) | 1 to 10 nM |

---

System: pERK, Calu6 cells
Procedure Details: Phospho-ERK inhibition, AlphaLISA p-ERK 1/2, Calu-6
Type: cell-based, human
Settings: Homo sapiens, Calu-6; Table D-2; Calu6 (KRAS Q61K)
pIC50: −log10 of the molar value.
Endpoint Label: pIC50

| Compound | Result |
| --- | --- |
| Cc1ccc2c(Nc3cccc(Cl)c3F)nccc2c1NC(=O)c1csc2c(N)ncnc12 [Belvarafenib, reference compound] | 6.52 to 7.52 |

---

Measured HCT116 pERK (Ymin %) values are reported for all entries that follow.
System: pERK, HCT116 cells
Procedure Details: Phospho-ERK inhibition, AlphaLISA p-ERK 1/2, HCT-116
Format: cell-based, human
Settings: Table 3; lowest % inhibition value of the pERK IC50 curve; above −20% = no paradoxical induction
Protocol: All cancer cell lines (A375, A101D, A2058, RKO, HT29 SK-MEL 30, IPC298, HepG2, HCT-116, Lovo, SW620, SW480, NCI-H358, NCI-H2122, Calu-6, NCIH2087, NCIH1755, NCIH1666 and Mewo) were obtained from ATCC and cultured in RPM1-1640 medium (Gibco) supplemented with 5% heat inactivated fetal bovine serum (FBS, Wisent) at 37° C. under 5% CO2. Cells were maintained in T175 flasks (Greiner). […] The effect of each compound dilution on the pERK signal was expressed in % inhibition and calculated as follows. […]
Endpoint Label: HCT116 pERK (Ymin %)

| Compound | Numeric Result |
| --- | --- |
| COCCN(C)S(=O)(=O)c1cn(-c2nc3c(Nc4c(F)ccc(NS(=O)(=O)c5cccc(Cl)c5Cl)c4F)ncnc3s2)c2ccccc12 | 0 |
| CC1COCCN1S(=O)(=O)c1cn(-c2nc3c(Nc4c(F)ccc(NS(=O)(=O)c5cccc(Cl)c5Cl)c4F)ncnc3s2)c2ccccc12 (stereo not drawn) | −7 |
| O=S(=O)(Nc1ccc(F)c(Nc2ncnc3sc(-n4cnc5c(N6CCOC(CO)C6)cccc54)nc23)c1F)c1cccc(Cl)c1Cl (stereo not drawn) | 2 |
| CCOc1cccc2c1ccn2-c1nc2c(Nc3c(F)ccc(NS(=O)(=O)c4cccc(Cl)c4Cl)c3F)ncnc2s1 | −10 |
| CC1(N)CCN(c2cccc3c2ncn3-c2nc3c(Nc4c(F)ccc(NS(=O)(=O)c5cccc(Cl)c5Cl)c4F)ncnc3s2)CC1 | −14 |
| Cc1c(F)cccc1S(=O)(=O)Nc1ccc(F)c(Nc2ncnc3sc(-n4cc(C(=O)N(C)Cc5ccncc5)c5ccccc54)nc23)c1F | −3 |

---

Recorded HCT116 pERK (Ymin %) values for a group of compounds are listed next.
Test system: pERK, HCT116 cells
Procedure Details: Phospho-ERK inhibition, AlphaLISA p-ERK 1/2, HCT-116
Assay type: cell-based, human
Settings: Table 3; lowest % inhibition value of the pERK IC50 curve; above −20% = no paradoxical induction
Endpoint Label: HCT116 pERK (Ymin %)

| Compound | Test Target | Endpoint Label | Unit Of Measurement | Numeric Result |
| --- | --- | --- | --- | --- |
| O=S(=O)(Nc1ccc(F)c(Nc2ncnc3sc(-n4cnc5c(N6CCC[C@H](O)C6)cccc54)nc23)c1F)c1cccc(Cl)c1Cl | pERK, HCT116 cells | HCT116 pERK (Ymin %) | % | −4 |
| O=C(c1cn(-c2nc3c(Nc4c(F)ccc(NS(=O)(=O)c5cccc(Cl)c5Cl)c4F)ncnc3s2)c2ccccc12)N1CCCC(O)C1 (stereo not drawn) | pERK, HCT116 cells | HCT116 pERK (Ymin %) | % | −3 |
| NS(=O)(=O)c1cn(-c2nc3c(Nc4c(F)ccc(NS(=O)(=O)c5cccc(Cl)c5Cl)c4F)ncnc3s2)c2ccccc12 | pERK, HCT116 cells | HCT116 pERK (Ymin %) | % | −13 |
| Cc1c(Cl)cccc1S(=O)(=O)Nc1ccc(F)c(Nc2ncnc3sc(-n4cnc5ccccc54)nc23)c1F | pERK, HCT116 cells | HCT116 pERK (Ymin %) | % | −4 |
| O=S(=O)(Nc1ccc(F)c(Nc2ncnc3sc(-n4cnc(CCO)c4)nc23)c1F)c1cccc(Cl)c1Cl | pERK, HCT116 cells | HCT116 pERK (Ymin %) | % | −11 |
| CN(CCc1ccccn1)C(=O)c1cn(-c2nc3c(Nc4c(F)ccc(NS(=O)(=O)c5cccc(Cl)c5Cl)c4F)ncnc3s2)c2ccccc12 | pERK, HCT116 cells | HCT116 pERK (Ymin %) | % | 1 |
